# System: PPARg DBDmut IVT, anti-PPARg (DBD mutation: PPARg1 K132A/R137A, NR concentration 270 nM)
# PROTOCOL_DESCRIPTION: PBM binding z-score (relative to random genomic background probes); higher = stronger binding; sequences stand for … in GC…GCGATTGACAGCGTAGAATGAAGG
MEASUREMENT_TYPE: PBM binding z-score
Keep it simple and answer with nothing but the number.

Here is how some sequences turned out for PBM binding z-score.
POLYMER_SEQUENCE | PBM binding z-score
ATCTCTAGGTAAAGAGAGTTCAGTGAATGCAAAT | 0.197
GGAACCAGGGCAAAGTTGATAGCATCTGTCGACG | 1.82
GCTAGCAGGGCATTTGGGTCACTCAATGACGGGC | -0.844

Read the next record carefully.
Ask | Requested field: PBM binding z-score. Item: `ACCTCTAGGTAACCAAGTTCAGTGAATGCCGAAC`
Reply | 0.237

###

# Tested on: THRa homodimer (NR concentration 90 nM)
# PROTOCOL_DESCRIPTION: PBM binding z-score (relative to random genomic background probes); higher = stronger binding; sequences stand for … in GC…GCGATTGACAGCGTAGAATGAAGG
PBM binding z-score of 1 or higher: yes. Under 1: no.

Below, 2 sequences whose answers are already recorded.
POLYMER_SEQUENCE | EXPERIMENTAL_SYSTEM | CLASS_ASSIGNMENT
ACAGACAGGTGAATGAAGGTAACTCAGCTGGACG | THRa homodimer (NR concentration 90 nM) | no
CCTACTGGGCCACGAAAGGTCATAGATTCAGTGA | THRa homodimer (NR concentration 90 nM) | no

Ask | Please indicate if the recorded PBM binding z-score for `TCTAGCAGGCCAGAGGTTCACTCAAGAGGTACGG` meets or exceeds 1.
Reply | no

Ask | Please indicate if the recorded PBM binding z-score for `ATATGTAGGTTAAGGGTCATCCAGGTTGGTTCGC` meets or exceeds 1.
Reply | yes

Ask | Please indicate if the recorded PBM binding z-score for `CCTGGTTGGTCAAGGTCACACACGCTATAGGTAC` meets or exceeds 1.
Reply | yes

Ask | Please indicate if the recorded PBM binding z-score for `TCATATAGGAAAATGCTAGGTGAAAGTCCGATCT` meets or exceeds 1.
Reply | no

Ask | Please indicate if the recorded PBM binding z-score for `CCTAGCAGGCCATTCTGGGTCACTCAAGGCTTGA` meets or exceeds 1.
Reply | no

###

# Test system: RARg homodimer (NR concentration 270 nM)
# PROTOCOL_DESCRIPTION: PBM binding z-score (relative to random genomic background probes); higher = stronger binding; sequences stand for … in GC…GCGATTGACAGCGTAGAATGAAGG
MEASUREMENT_TYPE: PBM binding z-score
Keep it simple and answer with nothing but the number.

Here is how some sequences turned out for PBM binding z-score.
POLYMER_SEQUENCE | MEASUREMENT_TYPE | MEAS_VALUE
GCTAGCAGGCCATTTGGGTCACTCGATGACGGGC | PBM binding z-score | 1.25
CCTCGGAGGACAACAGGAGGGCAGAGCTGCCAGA | PBM binding z-score | 2.08
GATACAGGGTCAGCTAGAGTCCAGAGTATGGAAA | PBM binding z-score | 4.41

Read the next record carefully.
Ask | Requested field: PBM binding z-score. Item: `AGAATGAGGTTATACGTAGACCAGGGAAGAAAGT`
Reply | 1.19

###

# Test system: LXRb homodimer (NR concentration 270 nM)
# PROTOCOL_DESCRIPTION: PBM binding z-score (relative to random genomic background probes); higher = stronger binding; sequences stand for … in GC…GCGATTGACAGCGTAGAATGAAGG
Classes based on PBM binding z-score: bottom bin (below -0.3), middle bin (-0.3 to below 0.02), top bin (0.02 or more)

Below, 3 sequences whose answers are already recorded.
POLYMER_SEQUENCE | CLASS_ASSIGNMENT
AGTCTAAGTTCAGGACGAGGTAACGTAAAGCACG | middle bin
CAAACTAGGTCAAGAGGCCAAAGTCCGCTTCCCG | middle bin
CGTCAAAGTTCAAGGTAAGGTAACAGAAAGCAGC | top bin

--- query ---
Ask | Which PBM binding z-score band matches `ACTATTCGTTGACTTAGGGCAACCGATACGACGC` ?
Reply | top bin

###

PBM binding z-score: recorded values
# Tested on: PPARg:RXRa IVT, anti-PPARg (NR concentration 270 nM, RXRa partner concentration 90 nM)
# PROTOCOL_DESCRIPTION: PBM binding z-score (relative to random genomic background probes); higher = stronger binding; sequences stand for … in GC…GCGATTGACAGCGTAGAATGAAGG
Keep it simple and answer with nothing but the number.

POLYMER_SEQUENCE | PBM binding z-score
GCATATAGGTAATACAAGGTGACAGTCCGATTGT | 3.54
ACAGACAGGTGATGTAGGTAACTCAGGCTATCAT | 2.15
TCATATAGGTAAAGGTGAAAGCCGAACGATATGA | 4.09
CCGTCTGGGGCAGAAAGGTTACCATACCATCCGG | 0.764
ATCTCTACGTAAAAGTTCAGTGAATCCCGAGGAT | 0.157

Ask | Requested field: PBM binding z-score. Item: `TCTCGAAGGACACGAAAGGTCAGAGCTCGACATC`
Reply | 1.64

Ask | Requested field: PBM binding z-score. Item: `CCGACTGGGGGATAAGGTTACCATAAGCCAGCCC`
Reply | 1.85

Ask | Requested field: PBM binding z-score. Item: `CGTCCAAGTTCAATGCTAGGTCAGTGAAAGCATT`
Reply | 0.878

Ask | Requested field: PBM binding z-score. Item: `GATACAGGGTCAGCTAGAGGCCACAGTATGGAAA`
Reply | 2.57

Ask | Requested field: PBM binding z-score. Item: `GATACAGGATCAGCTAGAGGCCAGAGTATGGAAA`
Reply | -0.432

Ask | Requested field: PBM binding z-score. Item: `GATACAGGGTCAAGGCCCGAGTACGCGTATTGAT`
Reply | 3.66

Ask | Requested field: PBM binding z-score. Item: `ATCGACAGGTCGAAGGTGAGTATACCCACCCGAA`
Reply | 1.09

Ask | Requested field: PBM binding z-score. Item: `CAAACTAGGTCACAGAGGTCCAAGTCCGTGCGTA`
Reply | 9.18

Ask | Requested field: PBM binding z-score. Item: `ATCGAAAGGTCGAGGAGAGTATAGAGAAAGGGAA`
Reply | 1.22

Ask | Requested field: PBM binding z-score. Item: `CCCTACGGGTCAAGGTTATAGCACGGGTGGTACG`
Reply | 2.06

Ask | Requested field: PBM binding z-score. Item: `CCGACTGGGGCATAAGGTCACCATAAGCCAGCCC`
Reply | 4.43

Ask | Requested field: PBM binding z-score. Item: `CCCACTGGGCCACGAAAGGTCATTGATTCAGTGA`
Reply | 6.02

Ask | Requested field: PBM binding z-score. Item: `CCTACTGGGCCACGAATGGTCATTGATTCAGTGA`
Reply | 5.07

Ask | Requested field: PBM binding z-score. Item: `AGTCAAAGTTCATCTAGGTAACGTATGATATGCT`
Reply | 3.88

Ask | Requested field: PBM binding z-score. Item: `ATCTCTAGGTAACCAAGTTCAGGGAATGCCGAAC`
Reply | 2.89

Ask | Requested field: PBM binding z-score. Item: `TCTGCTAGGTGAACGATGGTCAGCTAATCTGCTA`
Reply | 2.97

Ask | Requested field: PBM binding z-score. Item: `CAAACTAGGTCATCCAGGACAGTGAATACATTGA`
Reply | 8.47

Ask | Requested field: PBM binding z-score. Item: `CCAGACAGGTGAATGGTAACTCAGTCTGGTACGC`
Reply | 0.735

Ask | Requested field: PBM binding z-score. Item: `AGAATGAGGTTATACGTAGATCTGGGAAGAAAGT`
Reply | 2.08

Ask | Requested field: PBM binding z-score. Item: `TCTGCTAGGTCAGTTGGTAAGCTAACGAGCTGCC`
Reply | 2.46

###

# Tested on: RXRa DBDmut IVT, anti-RXR (DBD mutation: RXRa K156A/R161A, NR concentration 90 nM)
# PROTOCOL_DESCRIPTION: PBM binding z-score (relative to random genomic background probes); higher = stronger binding; sequences stand for … in GC…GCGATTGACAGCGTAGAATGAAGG
Classes based on PBM binding z-score: LOW = under 0.3, MEDIUM = from 0.3 up to 1, HIGH = 1 and over

Below, 6 sequences whose answers are already recorded.
POLYMER_SEQUENCE | EXPERIMENTAL_SYSTEM | CLASS_ASSIGNMENT
TCTAGCAGGCCAGAGGGTAACTCAAGAGGTACGG | RXRa DBDmut IVT, anti-RXR (DBD mutation: RXRa K156A/R161A, NR concentration 90 nM) | LOW
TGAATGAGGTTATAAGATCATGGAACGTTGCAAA | RXRa DBDmut IVT, anti-RXR (DBD mutation: RXRa K156A/R161A, NR concentration 90 nM) | MEDIUM
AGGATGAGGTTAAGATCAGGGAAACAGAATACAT | RXRa DBDmut IVT, anti-RXR (DBD mutation: RXRa K156A/R161A, NR concentration 90 nM) | MEDIUM
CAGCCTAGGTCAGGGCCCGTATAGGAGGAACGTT | RXRa DBDmut IVT, anti-RXR (DBD mutation: RXRa K156A/R161A, NR concentration 90 nM) | LOW
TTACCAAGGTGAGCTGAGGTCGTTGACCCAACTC | RXRa DBDmut IVT, anti-RXR (DBD mutation: RXRa K156A/R161A, NR concentration 90 nM) | LOW
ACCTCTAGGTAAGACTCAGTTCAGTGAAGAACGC | RXRa DBDmut IVT, anti-RXR (DBD mutation: RXRa K156A/R161A, NR concentration 90 nM) | MEDIUM

Ask | Which PBM binding z-score band matches `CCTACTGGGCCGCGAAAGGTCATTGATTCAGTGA` ?
Reply | MEDIUM

Ask | Which PBM binding z-score band matches `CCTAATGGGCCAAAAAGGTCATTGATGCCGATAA` ?
Reply | HIGH
